target: Neuronal acetylcholine receptor subunit alpha-7 (Homo sapiens, UniProt P36544); assay: Binding affinity to alpha7 nAChR (unknown origin)
Sequence (P36544 whole entry): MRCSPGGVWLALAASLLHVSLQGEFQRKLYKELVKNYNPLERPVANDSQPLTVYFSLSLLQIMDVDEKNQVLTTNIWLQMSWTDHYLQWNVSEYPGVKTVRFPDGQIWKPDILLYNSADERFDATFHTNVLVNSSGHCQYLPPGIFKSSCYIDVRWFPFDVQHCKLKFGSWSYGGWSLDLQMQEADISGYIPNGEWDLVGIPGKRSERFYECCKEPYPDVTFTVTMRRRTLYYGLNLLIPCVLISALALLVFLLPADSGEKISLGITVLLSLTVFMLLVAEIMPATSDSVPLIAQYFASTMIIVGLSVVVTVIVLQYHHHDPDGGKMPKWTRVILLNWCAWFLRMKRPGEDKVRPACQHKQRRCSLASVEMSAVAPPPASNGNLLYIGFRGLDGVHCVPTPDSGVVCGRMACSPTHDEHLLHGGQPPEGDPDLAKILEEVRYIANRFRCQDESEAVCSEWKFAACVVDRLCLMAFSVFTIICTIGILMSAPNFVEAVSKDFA
Test Readout: Ki (nM)

| Structure Smiles | Test Readout | Value Measured |
| --- | --- | --- |
| Fc1ccc(-c2nnc(N3CCN4CCC3CC4)o2)cc1 | Ki | 11.6 |

###

test: Stability of the compound in PBS buffer assessed as compound remaining at pH 7.2 measured at 5 mins by radio-TLC analysis; format: physicochemical; details: read-out: Stability

| Structure Smiles | remaining at 5 min (%) |
| --- | --- |
| [18F]CCn1ccc2ccc(-c3nnc(N4CCN5CCC4CC5)o3)cc21 | 98 |
